tested on: wheat germ agglutinin (Triticum aestivum), Alexa647-labelled; test: wheat germ agglutinin binders on compound microarrays, profiling panel, artefact control for SMM control-protein annotation, biochemical, small-molecule microarray, 635/667 nm fluorescence (AID 1140); conditions: WGA-A647 binding, 635 nm fluorescence, higher = more signal;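 also: score merges 667 nm feature emission with signal to noise over triplicate slides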
reported-metric: composite z-score
Enter the number alone.

Use the examples below as a reference point.
[ask] Data request, read-out composite z-score, for "CCOC(=O)C[C@H]1[C@H](OC(=O)c2ccccc2-c2ccccc2)[C@@H](NC(=O)CC(C)C)c2cc(OCCCO)ccc2N1C(=O)c1ccccc1"
[reply] -0.0988

[ask] Next molecule up: "CCCCC(=C=CC[C@@H](O)c1ccccc1OCCO)C[C@@H](O)c1ccccn1"
[reply] -0.306

[ask] Next molecule up: "C=C(CC1([C@@H](NP(=O)(c2ccccc2)c2ccccc2)[C@H]2C[C@@H]2CCCC)CC1)c1cccc(OC)c1"
[reply] 0.344

Now take the following molecule into account.
[ask] Data request, read-out composite z-score, for "COC(=O)[C@@]1(Cc2ccc(F)cc2)[C@@H]2C(=CC(=O)[C@H]2CC(=O)C(=O)N2CCCC2)CN1C(=O)c1ccccc1"
[reply] 1.23

###

target: Torsin-1A (Homo sapiens) (UniProt O14656); assay: torsin A binders from cell lysate, primary screen, small-molecule microarray, wild-type, 635/667 nm (AID 1149); conditions: COS7 hTOR1A-WT lysate, 635 nm fluorescence, higher = more signal
Sequence (O14656 whole entry, looked up): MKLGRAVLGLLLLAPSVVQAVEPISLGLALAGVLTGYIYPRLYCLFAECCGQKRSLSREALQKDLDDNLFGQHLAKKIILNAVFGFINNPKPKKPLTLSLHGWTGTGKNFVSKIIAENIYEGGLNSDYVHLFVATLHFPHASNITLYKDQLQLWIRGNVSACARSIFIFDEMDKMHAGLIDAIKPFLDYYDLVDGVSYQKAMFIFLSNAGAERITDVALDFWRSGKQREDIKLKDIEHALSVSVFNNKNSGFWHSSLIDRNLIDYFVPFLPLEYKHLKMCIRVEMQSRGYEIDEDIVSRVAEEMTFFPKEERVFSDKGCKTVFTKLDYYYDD
Classification field: MET = composite z-score at or over -0.0005; NOT MET = composite z-score under -0.0005.

[ask] In plain terms: is recorded composite z-score at least -0.0005 for COc1cc(CO)cc(I)c1O[C@H]1C=C(C(=O)NCCO)C[C@@H](N(CCN2CCOCC2)C(=O)C2CCCO2)[C@@H]1O (stereo not given in full) ?
[reply] MET

Continuing:
[ask] In plain terms: is recorded composite z-score at least -0.0005 for "COc1ccc([Si](C)(C)[C@H]2[C@H](CC(=O)N(CCO)Cc3ccccc3)O[C@@]3(C(=O)N(c4ccccc4)c4ccccc43)[C@@H]2C)cc1" ?
[reply] MET

[ask] Next compound up: "COc1cccc(C)c1NC(=O)O[C@H]1[C@H](OC(=O)Nc2ccccc2-c2ccccc2)[C@@H](OC(=O)Nc2ccccc2-c2ccccc2)[C@@H](OC)O[C@@H]1CO"
[reply] MET

[ask] Next compound up: "[N-]=[N+]=NCc1ccccc1C[C@]1(C(=O)N2CCCCC2)COC(c2ccc(OCCCO)cc2)=N1"
[reply] MET

[ask] Next compound up: "COCCOC(=O)N1C(=O)[C@@]2(c3cc(C#CCNC(N)=O)ccc31)[C@H](c1ccccc1OCCO)N1[C@H](c3ccccc3)[C@H](c3ccccc3)OC(=O)[C@H]1[C@@H]2C(=O)N1CCCCCCC1"
[reply] MET

[ask] Next compound up: "Cc1ccc(S[C@]2(C(=O)NC(C)C)CC(=O)N(Cc3ccccc3)[C@@H]2c2ccc(CO)cc2I)cc1"
[reply] NOT MET

[ask] Next compound up: "COCCOC(=O)N1C(=O)[C@@]2(c3cc(C#CCNC(N)=O)ccc31)[C@H](c1ccc(O)cc1)N1[C@H](c3ccccc3)[C@H](c3ccccc3)OC(=O)[C@H]1[C@@H]2C(=O)N1CCc2cc(OC)c(OC)cc2C1"
[reply] NOT MET

[ask] Next compound up: "COCCOC(=O)N1C(=O)[C@@]2(c3cc(C#CCC(C(=O)OC)C(=O)OC)ccc31)[C@H](C(N)=O)[C@H]1C(=O)O[C@H](c3ccccc3)[C@H](c3ccccc3)N1[C@@H]2c1ccccc1OCCO"
[reply] MET

[ask] Next compound up: "Cc1ccc(S[C@]2(C(=O)NCCN3CCOCC3)CC(=O)N(C(C)C)[C@@H]2c2ccc(CO)cc2I)cc1"
[reply] NOT MET

[ask] Next compound up: "CCOC(=O)C1=CC[C@@H](c2ccccc2)N(S(=O)(=O)c2ccc(C)cc2)[C@@H]1C#N"
[reply] MET

[ask] Next compound up: "CC(C)C(=C=CC[C@H](O)c1cccc(OCCO)c1)C[C@H](O)c1ccccn1"
[reply] NOT MET

[ask] Next compound up: "COC(=O)[C@@]1(Cc2ccc(F)cc2)[C@H]2c3cc(C(=O)N4CCCC4)n(CCc4c[nH]c5cc(F)ccc45)c3C[C@H]2CN1C(=O)c1ccccc1"
[reply] MET

[ask] Next compound up: CC(CO)N1C(=O)[C@@H]2[C@H]3C(=O)OCC=C[C@H]3OC23C=CCN(c2ccc4ccccc4c2)C(=O)[C@@H]13 (stereo not given in full)
[reply] NOT MET

[ask] Next compound up: "C[C@]1(C(=O)NC2CC2)c2ccccc2C(=O)N(Cc2cc(F)cc(C(F)(F)F)c2)[C@H]1c1ccc(CO)cc1"
[reply] NOT MET

[ask] Next compound up: C=CCC(OC(C)=O)[C@@H]1[C@@H](N(Cc2ccc(-c3ccccc3)cc2)C(=O)Cc2ccc(OC)cc2)c2cc(OCCCO)ccc2N1C(=O)c1ccc2ccccc2c1 (stereo not given in full)
[reply] NOT MET

###

target: NADPH oxidase 4 (Homo sapiens); assay: NOX4-dependent H2O2 signal modulators, primary screen, NOX inhibitor project, cell-based, HEK293-NOX4, tetracycline-induced, Amplex Red fluorescence (AID 1160); conditions: 45 min, higher = more signal, called active from +8 up or from −8 down
reported-metric: z-score
Enter the number alone.

Use the examples below as a reference point.
[ask] Data request, read-out z-score, for "C=C(CC1([C@@H](NP(=O)(c2ccccc2)c2ccccc2)[C@H]2C[C@@H]2CCCC)CC1)c1cccc(OC)c1"
[reply] -1.36

[ask] Next molecule up: "CCOC(=O)C[C@H]1[C@H](OC(=O)c2cc3ccccc3oc2=O)[C@@H](NC(=O)c2ccc(-c3ccccc3)cc2)c2cc(OCCCO)ccc2N1C(=O)Cc1ccc(OC)cc1"
[reply] 1.08

[ask] Next molecule up: COC(=O)C1=CC(c2ccc(CO)cc2)=CC(C2CC2)N(Cc2cc3c(cc2Br)OCO3)C=C1C(=O)OC (stereo unspecified)
[reply] -0.385

Continuing:
[ask] Data request, read-out z-score, for "COc1ccc(C(=O)Nc2ccc(CN3C(=O)[C@@]4(O[C@@H](CC(=O)N(CCO)Cc5ccccc5)[C@H]([Si](C)(C)c5ccc(OC)cc5)[C@H]4C)c4ccccc43)cc2)cc1"
[reply] 1.39

[ask] Next molecule up: "COc1ccc(CCNC(=O)[C@@]2(c3ccc([N+](=O)[O-])cc3)CC(=O)N(C3CCCCC3)[C@@H]2c2ccc(CO)cc2I)cc1"
[reply] -1.04

[ask] Next molecule up: "C=C(C(=O)CC[C@@H](OC(=O)c1ccccc1-c1ccccc1C(=O)O)c1ccc(CO)o1)C(C)C"
[reply] -0.593

[ask] Next molecule up: COC(=O)[C@H](Cc1ccccc1)N1CC(C)(OC)O[C@@H](Cc2ccccc2)[C@H]1/C=C/C1CC1 (stereo partly specified)
[reply] -0.147

[ask] Next molecule up: "CO[C@H]1O[C@H](CO)[C@@H](OC(=O)Nc2cccc(F)c2)[C@H](OC(=O)Nc2ccc3c(c2)OCO3)[C@@H]1OC(=O)Nc1ccc2c(c1)OCO2"
[reply] -1.07

###

test: small-molecule microarray binders of probe aXIP, primary screen, biochemical, NeuroSMM set, 635/667 nm fluorescence (AID 1119); conditions: higher = more signal, called active from +8 up or from −8 down;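 also: probe is the protein aXip251-270 applied at 1 µg/mL to compound-printed slides; binding of probe to printed compounds measured as 667 nm fluorescence plus signal to noise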
Classification field: criterion met = composite Z-score at or over 0.1; criterion not met = composite Z-score under 0.1.

[ask] In plain terms: is recorded composite Z-score at least 0.1 for "CC[C@@H](O[Si](C#C[Si](C(C)C)(C(C)C)C(C)C)(C(C)C)C(C)C)c1cn([C@H](C)c2ccccc2)nn1" ?
[reply] criterion met

[ask] Next compound up: "C=C[C@@H](CO)NS(=O)(=O)c1ccc(Br)cc1"
[reply] criterion not met

Continuing:
[ask] In plain terms: is recorded composite Z-score at least 0.1 for CN1C(=O)C2C=CC(C(O)c3ccc([N+](=O)[O-])cc3)N(Nc3ccccc3)C2C1=O (stereo not given) ?
[reply] criterion not met

###

assay: CREB reporter modulators under forskolin, primary screen, cell-based, PC12, CRE-LacZ reporter, forskolin-stimulated (AID 1146); settings: luminescence, 4.5 h, higher = more signal, called active from +8 up or from −8 down;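 also: PC12 cells with 6xCRE LacZ reporter stimulated by forskolin 10 µM; beta-galactosidase reporter signal reflecting CREB driven transcription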
Each entry below lists one item and its recorded z-score value.
Enter the number alone.

[ask] Data request, read-out z-score, for N#Cc1ccc(NN2C(C(O)c3ccc(B(O)O)cc3)C=CC3CN(c4ccccc4)C(=O)C32)cc1 (centres undefined)
[reply] -0.758

[ask] Next compound up: "[N-]=[N+]=NCc1ccccc1[C@H]1OC(c2ccc(OCCCO)cc2)=N[C@@]1(Cc1ccccc1N=[N+]=[N-])C(=O)O"
[reply] -0.763

[ask] Next compound up: "COc1c(C)cc(-c2nc(-c3ccccc3)c3c(c2C)CO[Si]3(C(C)C)C(C)C)cc1C"
[reply] 0.456

[ask] Next compound up: CN1C(=O)C2C(C1=O)C1C=C(CCCO)C2C(C2CC2)N1C (centres undefined)
[reply] -0.984

[ask] Next compound up: "CCCCCCc1nc(-c2ccc(OC)nc2)c(C)c2c1[Si](C(C)C)(C(C)C)OC2"
[reply] -0.556

[ask] Next compound up: "COCCOC(=O)N1C(=O)[C@@]2(c3cc(C#CCCO)ccc31)[C@H](c1ccc(O)cc1)N1[C@H](c3ccccc3)[C@H](c3ccccc3)OC(=O)[C@H]1[C@@H]2C(=O)NC[C@H](O)c1ccccc1"
[reply] -0.583

[ask] Next compound up: "C=C(C(=O)CC[C@H](OC(=O)c1ccccc1-c1ccccc1C(=O)O)c1ccc(OCCO)cc1)C(C)C"
[reply] 1.09

[ask] Next compound up: "COc1ccc([Si](C)(C)[C@H]2[C@H](CCO)O[C@@]3(C(=O)N(Cc4ccccc4)c4ccc(NC(=O)[C@H](C)O)cc43)[C@@H]2C)cc1"
[reply] 1.12

[ask] Next compound up: "COc1ccc(CCNC(=O)[C@@]2(C)c3ccccc3C(=O)N(Cc3ccc(OC(F)(F)F)cc3)[C@H]2c2ccc(CO)cc2)cc1"
[reply] 0.175

[ask] Next compound up: COc1ccc(C(O)C2C=CC3C(=O)N(C)C(=O)C3N2Nc2ccccc2)cc1 (centres undefined)
[reply] 0.459

[ask] Next compound up: "Cc1ccc(S(=O)(=O)N2[C@@H](c3ccccc3)C(C(=O)O)=C[C@H]2C(C)(C)C)cc1"
[reply] 0.926

[ask] Next compound up: "O=C1c2ccccc2[C@@]2(Cc3ccccc3N(CC(F)(F)F)C2=O)[C@H](c2ccc(CO)cc2)N1Cc1ccccc1"
[reply] -0.616

[ask] Next compound up: C=CCC(OC(C)=O)[C@@H]1[C@@H](N(Cc2cccc3ccccc23)C(=O)c2ccc(C)cc2)c2cc(OCCCO)ccc2N1C(=O)Cc1ccc2ccccc2c1 (some centres undefined)
[reply] -0.0127
